Item-by-item account of neutralization IC50
ASSAY TARGET: HIV-1 envelope glycoprotein gp120 of virus 92US727 (HIV-1)
ASSAY NOTES: cell-based or functional assay

- BINDER: "1.1.102-1 (antibody, human IgG1, kappa, V domains shown) VH: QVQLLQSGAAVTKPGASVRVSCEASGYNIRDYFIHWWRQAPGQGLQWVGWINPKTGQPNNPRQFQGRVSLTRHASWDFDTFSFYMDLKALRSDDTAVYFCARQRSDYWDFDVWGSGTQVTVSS VL: DIQMTQSPSSLSASVGDRATITCQANGYLNWYQQRRGKAPKLLIYDGSKLERGVPSRFSGSRWGQEYHLTISSLQPEDIATYFCQVYEFFGPGTRLDLKR"
  VALUE REPORTED: "> 50 µg/mL"
- BINDER: "2.2.9-1 (antibody, human IgG1, kappa, V domains shown) VH: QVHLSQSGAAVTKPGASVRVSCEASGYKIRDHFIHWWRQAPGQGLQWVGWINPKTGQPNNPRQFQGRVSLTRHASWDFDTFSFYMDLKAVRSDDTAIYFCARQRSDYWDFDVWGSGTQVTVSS VL: DIQMTQSPSSLSARVGDTATITCQANGYLNWYQQRRGKAPKLLIYDGSKLERGVPARFSGRRWGQEYNLTINNLQPEDVATYFCQVYEFFGPGTRLDLKR"
  VALUE REPORTED: "13.1 µg/mL"

Entry under review: 2.3.13-1 (antibody, human IgG1, kappa, V domains shown) VH: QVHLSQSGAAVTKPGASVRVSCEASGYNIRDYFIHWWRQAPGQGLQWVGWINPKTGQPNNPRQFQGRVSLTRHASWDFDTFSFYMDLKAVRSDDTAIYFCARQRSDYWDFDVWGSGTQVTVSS VL: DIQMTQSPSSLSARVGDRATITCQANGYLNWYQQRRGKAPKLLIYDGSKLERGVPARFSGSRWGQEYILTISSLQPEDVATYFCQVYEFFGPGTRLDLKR . Reported neutralization IC50? > 38 µg/mL

Entry under review: 2.3.15-1 (antibody, human IgG1, kappa, V domains shown) VH: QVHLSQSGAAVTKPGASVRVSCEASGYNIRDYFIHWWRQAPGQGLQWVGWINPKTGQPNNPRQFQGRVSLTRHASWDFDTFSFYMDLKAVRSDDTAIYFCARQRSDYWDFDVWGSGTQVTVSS VL: DIQMTQSPSSLSARVGDTATITCQANGYLNWYQQRRGKAPKLLIYDGSKLERGVPARFSGRRWGQEYTLTINNLQPEDVATYFCQVYEFFGPGTRLDLKR . Reported neutralization IC50? > 50 µg/mL

Entry under review: 2.3.9-1 (antibody, human IgG1, kappa, V domains shown) VH: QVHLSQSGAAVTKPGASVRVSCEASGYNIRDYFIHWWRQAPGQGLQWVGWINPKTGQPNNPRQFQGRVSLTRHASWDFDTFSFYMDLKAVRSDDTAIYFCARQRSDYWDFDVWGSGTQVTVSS VL: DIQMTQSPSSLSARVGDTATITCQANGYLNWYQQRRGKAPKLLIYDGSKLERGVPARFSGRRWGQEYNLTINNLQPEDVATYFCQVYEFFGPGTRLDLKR . Reported neutralization IC50? 11.1 µg/mL

The reported measurements were obtained from patent US20240034774A1.
